The origin of these recorded values is ChEMBL document CHEMBL4513216.

Provide the reported cytotoxicity at 10 µM of each item.
assay: Toxicity liver stage against HepG2, at 10uM; type: cell-based; set-up: test concentration 10 uM, cell line HepG2-A16-CD81EGFP; settings: human, HepG2-A16-CD81EGFP cells; read-out: INHIBITION
# do not omit the unit; it follows the number

O=C(c1[nH]nc2c1CCCC2)N1CCC(OCCN2CCCCC2)C1 (configuration not stated)	-4.52%

For every listed record, write down its cytotoxicity at 10 µM.
1. COc1ccc(-n2nc(C3CC3)nc2CCn2cnnn2)cc1
2. CSc1nc2ncc3c(=O)n(C)ccc3n2n1
3. Oc1cc(-c2nccs2)nc(C2CCN(Cc3cccs3)CC2)n1

["-2.88%", "-11.6%", "16.7%"]

State the recorded cytotoxicity at 10 µM for every item in the following list.
1. c1cc(-c2nnc([C@H]3CCNC3)o2)ccn1
2. Cc1nccn1-c1cc(CNC(=O)c2ccccn2)ccn1
3. Cc1nccnc1N1C[C@H](NC(=O)CNS(C)(=O)=O)[C@@H](C2CC2)C1

["4.82%", "-11.5%", "-10.3%"]
